- TARGET DESC: human FolR3 (Homo sapiens, UniProt P41439)
- Sequence (P41439 with tags, fused parts or gaps): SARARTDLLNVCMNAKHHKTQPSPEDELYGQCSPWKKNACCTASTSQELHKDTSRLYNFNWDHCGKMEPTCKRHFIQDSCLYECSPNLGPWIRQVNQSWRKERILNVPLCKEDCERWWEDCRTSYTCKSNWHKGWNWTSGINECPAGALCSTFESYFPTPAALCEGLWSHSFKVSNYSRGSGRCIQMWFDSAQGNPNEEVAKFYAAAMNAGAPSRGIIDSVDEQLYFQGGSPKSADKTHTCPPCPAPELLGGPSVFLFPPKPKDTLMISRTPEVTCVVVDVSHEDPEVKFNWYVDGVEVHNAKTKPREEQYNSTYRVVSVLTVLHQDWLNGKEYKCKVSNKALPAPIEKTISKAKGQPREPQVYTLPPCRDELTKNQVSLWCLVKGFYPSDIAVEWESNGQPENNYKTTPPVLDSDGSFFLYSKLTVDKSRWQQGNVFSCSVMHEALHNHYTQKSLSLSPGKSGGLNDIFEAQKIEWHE
- Sequence (P01857 104-330 isoform P01857-1 Y232C/T249S/L251A/Y290V/H318R/Y319F partner): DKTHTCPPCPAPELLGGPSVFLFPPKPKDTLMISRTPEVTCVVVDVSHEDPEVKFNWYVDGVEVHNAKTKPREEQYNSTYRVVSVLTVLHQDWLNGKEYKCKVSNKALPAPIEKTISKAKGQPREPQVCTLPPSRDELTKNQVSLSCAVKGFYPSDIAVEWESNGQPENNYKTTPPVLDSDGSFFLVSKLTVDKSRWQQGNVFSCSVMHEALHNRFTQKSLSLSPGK
- SETUP CONDITIONS: IgG injected for 60 seconds at 500 nM
READOUT TYPE: Binding to huFolR3

Some solved entries appear below for comparison.
INSERT INTO results (molecule, result) VALUES
  ('36F2: anti-FolR1 clone, generic multi-framework library (Vk_3_20/VH_1_46); Fab and IgG (antibody, V domains shown) VH: QVQLVQSGAEVKKPGASVKVSCKASGYTFTSYYMHWVRQAPGQGLEWMGIINPSGGSTSYAQKFQGRVTMTHDTSTSTVYMELSSLRSEDTAVYYCARSFFTGFHLDYWGQGTLVTVSS VL: EIVLTQSPGTLSLSPGERATLSCRASQSVSSSYLAWYQQKPGQAPRLLIYGASSRATGIPDRFSGSGSGTDFTLTISRLEPEDFAVYYCQQYTNEHYYTFGQGTKVEIK', '−'),
  ('5D9: anti-FolR1 clone, generic multi-framework library (Vk3_20/VH1_46); Fab and IgG (antibody, V domains shown) VH: QVQLVQSGAEVKKPGASVKVSCKASGYTFTSYYMHWVRQAPGQGLEWMGIINPSGGSTSYAQKFQGRVTMTRDTSTSTVYMELSSLRSEDTAVYYCARSYIDMDYWGQGTLVTVSS VL: EIVLTQSPGTLSLSPGERATLSCRASQSVSSSYLAWYQQKPGQAPRLLIYGASSRATGIPDRFSGSGSGTDFTLTISRLEPEDFAVYYCQQDNWSPTFGQGTKVEIK', '+'),
  ('6B6: anti-FolR1 clone, generic multi-framework library (Vk3_20/VH1_46); Fab and IgG (antibody, V domains shown) VH: QVQLVQSGAEVKKPGASVKVSCKASGYTFTSYYMHWVRQAPGQGLEWMGIINPSGGSTSYAQKFQGRVTMTRDTSTSTVYMELSSLRSEDTAVYYCARSYVDMDYWGQGTLVTVSS VL: EIVLTQSPGTLSLSPGERATLSCRASQSVSSSYLAWYQQKPGQAPRLLIYGASSRATGIPDRFSGSGSGTDFTLTISRLEPEDFAVYYCQQDIWSPTFGQGTKVEIK', '+'),
  ('11F8: anti-FolR1 clone, generic multi-framework library (Vk_1_5/VH_1_69); Fab and IgG (antibody, V domains shown) VH: QVQLVQSGAEVKKPGSSVKVSCKASGGTFSSYAISWVRQAPGQGLEWMGGIIPIFGTANYAQKFQGRVTITADKSTSTAYMELSSLRSEDTAVYYCARAVFYRAWYSFDYWGQGTTVTVSS VL: DIQMTQSPSTLSASVGDRVTITCRASQSISSWLAWYQQKPGKAPKLLIYDASSLESGVPSRFSGSGSGTEFTLTISSLQPDDFATYYCQQYTSPPPTFGQGTKVEIK', '+');

Next up:
I would be grateful if you could share the reported Binding to huFolR3 for Mov19: reference molecule, the human FolR1 binder Mov19 (IgG) (antibody, V domains shown) VH: QVQLQQSGAELVKPGASVKISCKASGYSFTGYFMNWVKQSHGKSLEWIGRIHPYDGDTFYNQNFKDKATLTVDKSSNTAHMELLSLTSEDFAVYYCTRYDGSRAMDYWGQGTTVTVSS VL: DIELTQSPASLAVSLGQRAIISCKASQSVSFAGTSLMHWYHQKPGQQPKLLIYRASNLEAGVPTRFSGSGSKTDFTLNIHPVEEEDAATYYCQQSREYPYTFGGGTKLEIK .
−
